Molecular target: Phosphatidylinositol 4,5-bisphosphate 3-kinase catalytic subunit alpha isoform (Homo sapiens, UniProt P42336)
Sequence (P42336 whole entry, canonical isoform): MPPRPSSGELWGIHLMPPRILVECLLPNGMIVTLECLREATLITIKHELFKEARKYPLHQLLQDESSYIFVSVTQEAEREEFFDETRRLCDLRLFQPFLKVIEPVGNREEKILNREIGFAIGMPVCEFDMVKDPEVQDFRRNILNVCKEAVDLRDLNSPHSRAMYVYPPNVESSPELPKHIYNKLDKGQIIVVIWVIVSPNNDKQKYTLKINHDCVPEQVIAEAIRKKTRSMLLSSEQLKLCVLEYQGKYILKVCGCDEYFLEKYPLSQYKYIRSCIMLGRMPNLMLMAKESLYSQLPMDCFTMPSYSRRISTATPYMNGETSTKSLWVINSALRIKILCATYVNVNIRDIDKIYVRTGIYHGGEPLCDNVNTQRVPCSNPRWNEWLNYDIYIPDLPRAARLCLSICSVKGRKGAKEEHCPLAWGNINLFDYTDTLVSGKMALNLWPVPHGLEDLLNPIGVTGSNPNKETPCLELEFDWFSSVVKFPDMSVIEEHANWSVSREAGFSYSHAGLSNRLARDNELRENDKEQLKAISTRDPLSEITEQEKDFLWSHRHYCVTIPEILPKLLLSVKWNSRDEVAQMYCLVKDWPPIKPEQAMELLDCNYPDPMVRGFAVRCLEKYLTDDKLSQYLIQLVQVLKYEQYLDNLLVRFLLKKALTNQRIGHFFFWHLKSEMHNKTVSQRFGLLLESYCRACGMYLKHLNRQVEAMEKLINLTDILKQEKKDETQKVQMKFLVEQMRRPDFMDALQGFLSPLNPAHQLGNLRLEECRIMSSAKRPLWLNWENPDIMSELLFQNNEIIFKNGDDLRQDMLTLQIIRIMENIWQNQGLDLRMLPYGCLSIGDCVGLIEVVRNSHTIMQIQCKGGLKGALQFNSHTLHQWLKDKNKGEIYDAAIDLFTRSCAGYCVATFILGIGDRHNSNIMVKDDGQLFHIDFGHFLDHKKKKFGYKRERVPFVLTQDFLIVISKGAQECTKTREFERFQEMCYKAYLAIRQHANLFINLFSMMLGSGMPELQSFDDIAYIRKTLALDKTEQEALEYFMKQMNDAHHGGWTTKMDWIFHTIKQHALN
Assay: Inhibition of PI3Kalpha (unknown origin) expressed in baculovirus expression system by kinase-glo luminescence assay
pIC50: −log10 of the molar value.
Measured endpoint: pIC50

Structure smiles | Measured endpoint | Observed measurement
NC(=O)[C@H](Cc1ccccc1)NC(=O)[C@@H]1CCCN(c2nc(N3CCOCC3)nc(-n3c(C(F)F)nc4ccccc43)n2)C1 | pIC50 | 6.04
C[C@H](NC(=O)C1CCN(c2nc(N3CCOCC3)nc(-n3c(C(F)F)nc4ccccc43)n2)CC1)C(N)=O | pIC50 | 6.91
O=C([C@@H]1CCCCN1)N1CCN(c2nc(N3CCOCC3)nc(-n3c(C(F)F)nc4ccccc43)n2)CC1 | pIC50 | 5.54
O=C(O)[C@@H]1CCCN(c2nc(N3CCOCC3)nc(-n3c(C(F)F)nc4ccccc43)n2)C1 | pIC50 | 6.74
